# TARGET_UNDER_TEST: Alpha-2 adrenergic receptor (Mus musculus) (UniProt P30545+Q01338+Q01337)
# ASSAY_NAME: Antagonist potency towards alpha-2 adrenergic receptor in the mouse isolated electrically stimulated vas deferens with reference to idazoxan (prejunctional)
# Type: functional, tissue-based
# reported Potency; entries follow
Just the number, please, no unit attached.

Reference set, count: 3
Request the reported Potency associated with CCN(CC)CC1(OC)COc2ccccc2O1 (stereo not drawn) 0.0037

Look up Potency: CCN(CC)CC1COc2ccccc2O1 (stereo not drawn) 0.033

Can you share its Potency? I mean this molecule: COC1(C2=NCCN2)COc2ccccc2O1 (stereo not drawn) 11.3

New cases:
Give its Potency value. Item: c1ccc2c(c1)OCC(CN1CCCCC1)O2 (stereo not drawn) 0.29

Endpoint output: Potency of COC1(CN2CCCCC2)COc2ccccc2O1 (stereo not drawn) . Value? 0.00065

For the molecule shown here, c1ccc2c(c1)OCC(C1=NCCN1)O2 (stereo not drawn) , give the reported Potency. 1

Give the measured Potency of Clc1ccc(OCC2=NCCN2)cc1Cl . 0.018

What does the data say about its Potency? Entry: COC(Oc1ccc(Cl)c(Cl)c1)C1=NCCN1 (stereo not drawn) 0.0021
